test system: SN12C; assay: NCI tumour cell line growth inhibition, 48 h
Active and inactive are the calls of the source. No stated cut-off is given here; in the data, active = GI50 up to about 1.1 µM and inactive = higher.
Please go through the items and note down their GI50.

// for each compound below, give its GI50
1. Nc1nnc2nc(CC(=O)/C=C/c3ccccc3)c(=O)[nH]n12
2. O=C(/C=C/c1ccccc1)Oc1cccc(Br)c1
3. CCSc1cc(=O)n(C)c(=O)n1C
4. CCOC(=O)C(NC(=O)OCc1ccccc1)C(=O)O (configuration not stated)
5. COc1ccc(-c2cn3c(nc4ccccc43)c(C)n2)cc1

Result:
["> 100 µM (inactive)", "> 100 µM (inactive)", "> 100 µM (inactive)", "> 100 µM (inactive)", "> 77.1 µM (inactive)"]

// for each compound below, give its GI50
1. COC(=O)C(C(=O)C(=O)Nc1ccccc1C#N)c1nc2ccc([N+](=O)[O-])cc2nc1O (configuration not stated)
2. CCCCCCCCCC[C@H](O)[C@H]1CC[C@@H]([C@@H](O)CC[C@H](O)[C@@H]2CCC(CCCCCCC[C@@H](O)CC3=C[C@H](C)OC3=O)O2)O1 (some centres not stated)

Result:
["> 100 µM (inactive)", "2.94 µM (inactive)"]
